Hello, the source for this data is the supplement of paper PMC10127200, in case you need it.

Test system: 786-O
Experiment: Euclidean distance of Cell Painting phenotypic profile (signed KS, 77 features) to DMSO centroid (dimensionless distance); 5 or 10 uM (library dependent); higher = stronger phenotypic change vs DMSO (phenoactivity)
Conditions: 48 h
Counter-ions that a name gives are not always drawn.
readout kind: Euclidean distance
Number only, please.

Below are worked cases with known answers.
- compound: "CC#CCn1c(N2CCC[C@@H](N)C2)nc2c1c(=O)n(Cc1nc(C)c3ccccc3n1)c(=O)n2C"
  target system: "786-O"
  result: 0.904
- compound: "Nc1nnc(-c2cccc(Cl)c2Cl)c(N)n1"
  target system: "786-O"
  result: 0.851
- compound: "CC(=O)OCC1=C(C(=O)O)N2C(=O)[C@@H](NC(=O)Cc3cccs3)[C@H]2SC1"
  target system: "786-O"
  result: 1.38
- compound: "CC(C)(Oc1ccc(C(=O)c2ccc(Cl)cc2)cc1)C(=O)O [Choline Fenofibrate]"
  target system: "786-O"
  result: 0.954
- compound: "CN(C)CCOc1ccc(/C(=C(/CCCl)c2ccccc2)c2ccccc2)cc1 [Toremifene Citrate]"
  target system: "786-O"
  result: 1.72
- compound: "CCn1cc(C(=O)O)c(=O)c2cnc(N3CCNCC3)nc21"
  target system: "786-O"
  result: 1.47
- compound: "NS(=O)(=O)c1cc2c(cc1Cl)N=CNS2(=O)=O [Chlorothiazide]"
  target system: "786-O"
  result: 1.21
- compound: "CCOc1cc([C@@H](CS(C)(=O)=O)N2C(=O)c3cccc(NC(C)=O)c3C2=O)ccc1OC"
  target system: "786-O"
  result: 1.2
- compound: "Brc1c(NC2=NCCN2)ccc2nccnc12 [Brimonidine Tartrate]"
  target system: "786-O"
  result: 0.514
- compound: "CC1(C)CC(Oc2ccc(-c3ccc(-c4cn[nH]c4)cc3O)nn2)CC(C)(C)N1"
  target system: "786-O"
  result: 2.88

Input: Find the measured Euclidean distance of "CCCS(=O)(=O)Nc1ccc(F)c(C(=O)c2c[nH]c3ncc(-c4ccc(Cl)cc4)cc23)c1F" and report it.
Output: 1.14

Input: For the compound "COc1cc(NC(=O)c2ccccn2)ccc1Cl" , report Euclidean distance.
Output: 1.08

Input: Query Euclidean distance for CC(C)Cc1ccc(C(C)C(=O)O)cc1 (stereo unspecified) [Ibuprofen]
Output: 0.948

Input: Tell us which Euclidean distance value is on record for O=c1ccn([C@@H]2O[C@H](COP(=O)(O)OP(=O)(O)OP(=O)(O)OP(=O)(O)OC[C@H]3O[C@@H](n4ccc(=O)[nH]c4=O)[C@H](O)[C@@H]3O)[C@@H](O)[C@H]2O)c(=O)[nH]1 [Diquafosol Tetrasodium]
Output: 0.977

Input: Provide measured Euclidean distance value, entry: "C[C@]1(O)C[C@@H](c2nc(-c3ccc4ccc(-c5ccccc5)nc4c3)c3c(N)nccn32)C1"
Output: 1.12

Input: // fetch Euclidean distance given entry "COc1ccc(CN2C3CC2CN(c2ccc(-c4cc(OCC(C)(C)O)cn5ncc(C#N)c45)cn2)C3)cn1"
Output: 0.919

----------
Test system: OVCAR4
Assay: Euclidean distance of Cell Painting phenotypic profile (signed KS, 77 features) to DMSO centroid (dimensionless distance); 5 or 10 uM (library dependent); higher = stronger phenotypic change vs DMSO (phenoactivity)
Settings: 48 h
readout kind: Euclidean distance
Answer with a bare number; do not write a unit.

Input: Report measured Euclidean distance on OVCAR4; entry: "O=C(O)[C@@H]1CCCN1"
Output: 0.766

Input: Name the recorded Euclidean distance of C1COC(NC(C2CC2)C2CC2)=N1 [Rilmenidine Phosphate] , assay system OVCAR4.
Output: 1.02

Input: Fill in Euclidean distance for NCCCC[C@H](NC(=O)[C@@H]1CCCN1C(=O)[C@@H]1CSSC[C@H](NC(=O)CNC(=O)CNC(=O)CN)C(=O)N[C@@H](Cc2ccc(O)cc2)C(=O)N[C@@H](Cc2ccccc2)C(=O)N[C@@H](CCC(N)=O)C(=O)N[C@@H](CC(N)=O)C(=O)N1)C(=O)NCC(N)=O [Terlipressin Acetate] tested with OVCAR4.
Output: 1.15

Input: Give reported Euclidean distance for "CO[C@@H]1[C@@H](O[C@@H]2O[C@H](C)[C@@H](O[C@H]3C[C@@](C)(O)[C@@H](O)[C@H](C)O3)[C@H](N(C)C)[C@H]2O)[C@@H](CC=O)C[C@@H](C)[C@@H](O[C@H]2CC[C@H](N(C)C)[C@@H](C)O2)/C=C/C=C/C[C@@H](C)OC(=O)C[C@H]1OC(C)=O" (OVCAR4)
Output: 1.73

Input: State Euclidean distance on OVCAR4. Entry: COCC1=C(C(=O)OC(C)OC(=O)OC(C)C)N2C(=O)[C@@H](NC(=O)/C(=N\OC)c3csc(N)n3)[C@H]2SC1 (stereo not given in full)
Output: 0.958

----------
System: FB
Assay: Euclidean distance of Cell Painting phenotypic profile (signed KS, 77 features) to DMSO centroid (dimensionless distance); 5 or 10 uM (library dependent); higher = stronger phenotypic change vs DMSO (phenoactivity)
Details: 48 h
Classification field: enter Criterion met for Euclidean distance values not below 1, Criterion not met for values below it.

Use these answered entries as a reference point.
- compound: "C[C@@H]1C[C@H]2[C@@H]3CCC4=CC(=O)C=C[C@]4(C)[C@@]3(F)[C@@H](O)C[C@]2(C)[C@H]1C(=O)CO"
  discrete label: "Criterion met"
- compound: "CCCCC(=O)N(Cc1ccc(-c2ccccc2-c2nn[nH]n2)cc1)C(C(=O)O)C(C)C.CCOC(=O)C(C)CC(Cc1ccc(-c2ccccc2)cc1)NC(=O)CCC(=O)O (configuration not stated)"
  discrete label: "Criterion met"
- compound: "CC(=O)OCC(=O)[C@@]12OC(C)(C)O[C@@H]1C[C@H]1[C@@H]3C[C@H](F)C4=CC(=O)C=C[C@]4(C)[C@@]3(F)[C@@H](O)C[C@@]12C [Fluocinonide]"
  discrete label: "Criterion met"
- compound: "CCOc1ccc2nc(S(N)(=O)=O)sc2c1 [Ethoxzolamide]"
  discrete label: "Criterion met"

Next compound, please.
Input: Euclidean distance >= 1 for "CC(C)(CO)[C@@H](O)C(=O)NCCC(=O)O" ?
Output: Criterion met

----------
System: A549
Assay: Euclidean distance of Cell Painting phenotypic profile (signed KS, 77 features) to DMSO centroid (dimensionless distance); 5 or 10 uM (library dependent); higher = stronger phenotypic change vs DMSO (phenoactivity)
Conditions: 48 h
readout kind: Euclidean distance
Number, no unit, nothing else.

Please review the entries below; each comes with its answer.
- compound: "C=C1CC[C@@H]2[C@](C)(CO)[C@H](O)CC[C@@]2(C)[C@@H]1C/C=C1/C(=O)OC[C@H]1O [Andrographolide]"
  readout kind: "Euclidean distance"
  result: 1.6
- compound: "CCN(C(=O)c1c(O)c2c(Cl)cccc2n(C)c1=O)c1ccccc1"
  readout kind: "Euclidean distance"
  result: 0.95
- compound: "O=C(O[C@@H]1C[C@@H]2C[C@H]3C[C@H](C1)N2CC3=O)c1c[nH]c2ccccc12"
  readout kind: "Euclidean distance"
  result: 2.35

Input: Provide one value: measured Euclidean distance of "COC(=O)N[C@H](C(=O)N1CC2(CC2)C[C@H]1c1nc(-c2ccc3c(c2)C(F)(F)c2cc(-c4ccc5[nH]c([C@@H]6[C@H]7CC[C@H](C7)N6C(=O)[C@@H](NC(=O)OC)C(C)C)nc5c4)ccc2-3)c[nH]1)C(C)C"
Output: 1.83

Input: Output Euclidean distance of "CNC(=O)c1ccc(Nc2ncc(C(F)(F)F)c(NCc3nccnc3N(C)S(C)(=O)=O)n2)cc1"
Output: 1.6

Input: Answer with the recorded Euclidean distance for the compound listed here: CC(C)(C)C(=O)Oc1ccc(S(=O)(=O)Nc2ccccc2C(=O)NCC(=O)O)cc1 [Sivelestat (ONO-5046)]
Output: 0.693

Input: Output Euclidean distance of CC(C)(Sc1ccncc1-c1ccc(C#N)c2ccccc12)C(=O)O [Verinurad (RDEA3170)]
Output: 0.673

----------
Tested on: A549
Experiment: Euclidean distance of Cell Painting phenotypic profile (signed KS, 77 features) to DMSO centroid (dimensionless distance); 5 or 10 uM (library dependent); higher = stronger phenotypic change vs DMSO (phenoactivity)
Conditions: 48 h
readout kind: Euclidean distance
Just the number.

Look over these answered cases.
- chem smiles: "CO[C@H]1/C=C/O[C@@]2(C)Oc3c(C)c(O)c4c(O)c(c5c(nc6cc(C)ccn65)c4c3C2=O)NC(=O)/C(C)=C\\C=C\\[C@H](C)[C@H](O)[C@@H](C)[C@@H](O)[C@@H](C)[C@H](OC(C)=O)[C@@H]1C"
  readout kind: "Euclidean distance"
  result: 0.671
- chem smiles: "C[C@@](Cc1ccc(O)c(O)c1)(NN)C(=O)O"
  readout kind: "Euclidean distance"
  result: 1.06

Input: Determine from records and report Euclidean distance for "CC(C)(O)CC(=O)NCCn1ccc2ncnc(Nc3ccc(Oc4cccc(C(F)(F)F)c4)c(Cl)c3)c21"
Output: 2.02
